Listed binders paired with reported O.D. 450 nm
# SUBJECT OF TEST: control cells (Staphylococcus epidermidis), whole cells (Staphylococcus epidermidis)
# ASSAY: IgG ELISA on control cells

BINDER	O.D. 450 nm
6F antibody (antibody, V domains shown) VH: QVQLVESGGGVVRPGGSLRLSCTASGFTFDDHGMSWVRQAPGKGLEWVSTINLNGGSTAYADSVKGRFTISRDNAKNSLYLQMNSLRAEDTAVYYCSTRHLHHWGQGTLVTVSS VL: DIVMTQTPLSSPVTLGQPASISCRSSQSLVHSNGNTYLTWLQQRPGQPPRLLIHKISNRFSGVPDRFSGSGAGTDFTLKISRVEAEDVGVYYCVQAKQFPLTFGQGTRLEIK	0.0114 O.D. 450 nm
3F antibody (antibody, V domains shown) VH: QMQLVQSGAEVKKPGASVKVSCKASGYTFTDYYIHWVRQAPGQGLEWMGWINPNSGAPEFAQRFQGRVSMTRDASINTTYMELSGLRSEDTAVYYCVKGLEHAAGSAIFDRWGQGTMVTVSS VL: QTVVTQEPSFSVSPGGTVTLTCGLTSGSVSTSHFPSWYQQTPGQAPRTLIYFKDTRSSGVPDRFSGSILGNKAALTITGAQADDESDYYCALSMGSGIWVFGGGTKLTVL	-0.0105 O.D. 450 nm
10F antibody (antibody, V domains shown) VH: QVQLVESGGGLIQPGGSLRLSCVASGFTVSSSFMSWVRLAPGKGLEWVALAYSGGNTYYADSVKGRFTVSRDDSSNTLYLQMNSLRAEDTAVYYCSCEGKAVSGSRDLHFEFWSPGTLVTVSS VL: SYELTQAPSLSVSPGQTANIICSGDNLRTKYVSWYQQKPGQAPVLVIYNDNDRPSGIPERFSGTNSGNTAALTISRVEAGDEADYYCQVWDSSSDHLIFGGGTKLTVL	-0.0248 O.D. 450 nm
8F antibody (antibody, V domains shown) VH: QVQLVQSGGGVVQPGGSLRLSCAASGFSFNDYAMHWVRQVPGKGLEWVSSISWNSRSTVYAASVEGRFSISRDNSKNSLYLQMNSLRAEDAAVYYCTTDLGVVPAAIYAFDIWGQGTMVTVSS VL: DIQMTQSPSVMSASVGDRVNITCRASQGITNWLAWYQQKPGKAPKLLISAASSLQSGVPSRFSGSGSGTDFTLTISSLQPDDFATYYCQQTATFQITFGQGTRLDIK	-0.0268 O.D. 450 nm
